B1: Membrane-associated guanylate kinase, WW and PDZ domain-containing protein 2, residues 601 to 682; numbered along this chain, Q86UL8 (parent)
chain: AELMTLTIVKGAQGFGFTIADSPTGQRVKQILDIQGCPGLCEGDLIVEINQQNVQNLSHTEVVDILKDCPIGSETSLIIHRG

- Variants of: B1
- PROTOCOL: abundance fitness (aPCA) (normalised: wild type 0, dead -1); higher = more abundant; growth selection in yeast, the domain comes from the species named
- MEASUREMENT SETUP: Homo sapiens
RECORDED ENDPOINT: abundance fitness
Could you respond with only the numeric value?

# annotated cases, reported abundance fitness shown
{"columns": ["MUTANT CODE", "abundance fitness"],
 "data": [
  ["I79F", -0.046],
  ["K67A", -0.072],
  ["L45M", 0.089],
  ["N53E", -0.043],
  ["P70T", -0.108],
  ["Q51K", -0.024],
  ["E61H", -0.051],
  ["T18L", 0.01]
]}

# return recorded abundance fitness for input `E42G` -0.114

Please list abundance fitness recorded for the variant `Q52Y` -0.024

Tell me measured abundance fitness for `I31C` please. -0.185

Find the measured abundance fitness of `S76Q` and report it. 0

Write down abundance fitness measured for item `K67Q` -0.145
